# Test system: A498 renal
# assay.explanation: NCI tumour cell line growth inhibition, 48 h
Kind request: treat 20 µM as inclusive, so TGI at 20 µM or higher is Criterion met, anything lower is Criterion not met.

{"molecule": "Cc1c[n+]2c3ccccc3c3ccccc3c2s1", "measured.target": "A498 renal", "class.name": "Criterion met"}
{"molecule": "CC(=O)c1[nH]c(NC(C)C)c(C(=S)Nc2ccccc2)c1N", "measured.target": "A498 renal", "class.name": "Criterion met"}
{"molecule": "NC(=NCc1ccccc1)C(N=Nc1ccccc1)C(=O)NCc1ccccc1 (stereo not given)", "measured.target": "A498 renal", "class.name": "Criterion met"}
{"molecule": "CCCCN1CCCC[C@@H]1C(=O)N[C@H](C(=O)N(C)[C@H](C[C@@H](OC(C)=O)c1nc(C(=O)NC2CCC(C(=O)OC)CC2)cs1)C(C)C)C(C)C (stereo not given in full)", "measured.target": "A498 renal", "class.name": "Criterion met"}
{"molecule": "CCC(C)C(N)C(=O)NC(CC(N)=O)C(=O)NC(CC(C)C)C(=O)NC(CCCCN)C(=O)NC(C)C(=O)NC(CC(C)C)C(=O)NC(C)C(=O)NC(C)C(=O)NC(CC(C)C)C(=O)NC(C)C(=O)NC(CCCCN)C(=O)NC(CCCCN)C(=O)NC(C(=O)NC(CC(C)C)C(N)=O)C(C)CC (stereo not given)", "measured.target": "A498 renal", "class.name": "Criterion met"}
{"molecule": "COC(=O)c1cc(C(=O)OC)c(CC(=O)C(=O)NC2C3CC4CC(C3)CC2C4)nc1CC(=O)C(=O)NC1C2CC3CC(C2)CC1C3 (stereo not given)", "measured.target": "A498 renal", "class.name": "Criterion met"}
{"molecule": "CCN1CCC(Nc2ccnc3cc(Cl)ccc23)CC1", "measured.target": "A498 renal", "class.name": "Criterion met"}
{"molecule": "CCOC(=O)C1SC(=Nc2ccc(OC)c(OC)c2)N=C1C (stereo not given)", "measured.target": "A498 renal", "class.name": "Criterion met"}
{"molecule": "CC1=C2CC(C)(C)/C=C\\C(=O)/C(C)=C\\C3=C[C@H](C)C[C@]3(O2)C1=O", "measured.target": "A498 renal", "class.name": "Criterion not met"}
{"molecule": "COc1cc(/C=C(\\NC(=O)c2ccccc2)c2nc3ccc4c(c3[nH]2)C(=O)c2ccccc2C4=O)cc(OC)c1OC", "measured.target": "A498 renal", "class.name": "Criterion met"}
{"molecule": "COc1cc(C(=O)O[C@H](C(=O)NCCCNC(=O)[C@@H](OC(=O)c2cc(OC)cc3c(C)cccc23)[C@]2(C)CO2)[C@]2(C)CO2)c2cccc(C)c2c1", "measured.target": "A498 renal", "class.name": "Criterion not met"}
{"molecule": "CC(=O)OC(CC1(C)C(C)CCC23COC(=O)C2=CCCC31)c1ccoc1 (stereo not given)", "measured.target": "A498 renal", "class.name": "Criterion met"}
{"molecule": "COC1C(O)CC(OC2CC(OC3CC(O[C@@H]4C(=O)c5c(cc6cc(OC7CC(OC8CC(O)C(O)C(C)O8)C(O)C(C)O7)c(C)c(O)c6c5O)CC4[C@H](OC)C(=O)O)OC(C)C3O)OC(C)C2O)OC1C (stereo not given in full)", "measured.target": "A498 renal", "class.name": "Criterion not met"}
{"molecule": "CC(=O)/C(=C/c1ccccc1)C(=O)CC(C)C", "measured.target": "A498 renal", "class.name": "Criterion met"}
{"molecule": "COc1ccc(C2=NN(c3ccccc3)C[N+](c3ccc(C)cc3)=N2)cc1", "measured.target": "A498 renal", "class.name": "Criterion met"}
{"molecule": "COc1cc(CSc2ccc(O)cc2)cc(OC)c1OC", "measured.target": "A498 renal", "class.name": "Criterion met"}
{"molecule": "Cc1[nH]c(=O)[nH]c(=O)c1/C=C/C(=O)O (tested in a mixture with another compound)", "measured.target": "A498 renal", "class.name": "Criterion met"}
{"molecule": "CCCCn1c(CSc2ccc(Cl)cc2)c(C(=O)OCC)c2cc(OC)c(Br)cc21", "measured.target": "A498 renal", "class.name": "Criterion met"}
{"molecule": "O=C(O)C[C@@H](Cl)[C@H](NC(=O)OCc1ccccc1)C(=O)O", "measured.target": "A498 renal", "class.name": "Criterion met"}
{"molecule": "CCOC(=O)c1nc2ccc(C(F)(F)F)cc2nc1Nc1cc(OC)c(OC)c(OC)c1", "measured.target": "A498 renal", "class.name": "Criterion met"}
{"molecule": "COc1cc(OC)cc(-c2ccc(-c3ccc(C(=N)N)cn3)o2)c1", "measured.target": "A498 renal", "class.name": "Criterion not met"}
{"molecule": "COc1cc(OC)c(C(=O)c2cccs2)cc1N", "measured.target": "A498 renal", "class.name": "Criterion met"}
{"molecule": "C=C1C(=O)O[C@H]2[C@H]1CC/C(COC(=O)NCc1c[nH]c3ccccc13)=C\\CC[C@@]1(C)O[C@@H]21", "measured.target": "A498 renal", "class.name": "Criterion met"}
{"molecule": "COC(=O)c1ccc2c(c1)C(=O)c1c-2n(CCCCl)c(=O)c2cc([N+](=O)[O-])ccc12", "measured.target": "A498 renal", "class.name": "Criterion met"}
{"molecule": "Cc1ccc(C(=O)Nc2ccc(CP(=O)(O)O)cc2)cc1NC(=O)c1cccc(N)c1", "measured.target": "A498 renal", "class.name": "Criterion met"}
{"molecule": "CSC(=NC#N)S/C=C/C(=O)c1ccccc1", "measured.target": "A498 renal", "class.name": "Criterion met"}
{"molecule": "Nc1ccc2[nH]c(-c3cccc(C(F)(F)F)c3)cc(=O)c2c1", "measured.target": "A498 renal", "class.name": "Criterion met"}
{"molecule": "CC/C=C\\C[C@H](F)C/C=C1/C(=O)C=C[C@@H]1C/C=C\\CCCC(=O)OC", "measured.target": "A498 renal", "class.name": "Criterion not met"}

###

# Tested on: EKVX NSCLC
# assay.explanation: NCI tumour cell line growth inhibition, 48 h
Listed below: GI50 values for each entry.

{"sample.smiles": "C=C1C(=O)O[C@H]2[C@H]1CC/C(COC(=O)NCc1c[nH]c3ccccc13)=C\\CC[C@@]1(C)O[C@@H]21", "measured.target": "EKVX NSCLC", "GI50": "2.23 µM"}
{"sample.smiles": "COc1cc2c(c(OC)c1OC)-c1ccc(O)cc1[C@@H](NC(C)=O)CC2", "measured.target": "EKVX NSCLC", "GI50": "0.0577 µM"}
{"sample.smiles": "Cc1nc2c(c(N3CCCc4ccccc43)n1)CCC2", "measured.target": "EKVX NSCLC", "GI50": "< 0.01 µM"}
{"sample.smiles": "Cc1c(O)c(N=Nc2nc3ccccc3s2)c2ccccc2c1O", "measured.target": "EKVX NSCLC", "GI50": "13.3 µM"}
{"sample.smiles": "COC(=O)c1ccc2c(c1)C(=O)c1c-2n(CCCCl)c(=O)c2cc([N+](=O)[O-])ccc12", "measured.target": "EKVX NSCLC", "GI50": "> 100 µM"}
{"sample.smiles": "CC1=CC(C)=NN=C(N)N1S(=O)(=O)c1cc(C)c(Cl)cc1SCc1ccccc1", "measured.target": "EKVX NSCLC", "GI50": "6.08 µM"}

###

# System: MDA-MB-231 breast
# assay.explanation: NCI tumour cell line growth inhibition, 48 h
parameter: TGI

{"compound": "Clc1cccc(-c2sc(-c3ccsc3)cc2Cc2ccsc2)c1", "assay.value": "> 10 µM"}
{"compound": "CCOC(=O)c1cc(-n2nnc3ccccc32)cn1C", "assay.value": "> 10 µM"}
{"compound": "COC1CCON1C(=O)c1ccccc1 (stereo unspecified)", "assay.value": "> 10 µM"}
{"compound": "CCCCCCCCCCCC(=O)OC[C@H](C[As](=O)(O)O)OC(=O)CCCCCCCCCCC", "assay.value": "16.3 µM"}
{"compound": "Cc1cc(S(=O)(=O)N2CCNNC2=O)c(S)cc1Cl", "assay.value": "61 µM"}
{"compound": "Cc1nc(SCC(=O)Nc2ccc(Cl)cc2)c2sc(=S)n(-c3ccccc3)c2n1", "assay.value": "> 10 µM"}
{"compound": "COc1cc2c(c(OC)c1OC)C(=O)[C@@H]1[C@H]2N1C(=O)NCCCl", "assay.value": "> 100 µM"}
{"compound": "C=CC(O)(CBr)CCC(Br)C(=C)C (stereo unspecified)", "assay.value": "> 10 µM"}
{"compound": "CC1=CC(C)=NN=C(N)N1S(=O)(=O)c1cc(C)c(Cl)cc1SCc1ccccc1", "assay.value": "> 100 µM"}
{"compound": "O=C1CSC(c2c[nH]c3ccccc23)N1c1ccc(Cl)cc1 (stereo unspecified)", "assay.value": "> 100 µM"}
{"compound": "COc1ccc(/C=C/C(=O)/C=C/c2ccc(OC)cc2OC)c(OC)c1", "assay.value": "78.5 µM"}
